test: caspase-8 TRAIL sensitization, hit retest, confirmation, cell-based, NB7+caspase-8, with/without TRAIL, luminescence panel (AID 651596); conditions: NB7 neuroblastoma + caspase-8, without TRAIL, luminescence viability, without TRAIL, mean of runs, at 10 µM
Class key for activity values: range A = under 70%, range B = from 70% up to 90%, range C = 90% and over

MOLECULE	GROUP LABEL
CCC(C)c1ccc(NC(=O)c2ccco2)cc1 (stereo unspecified)	range B
Cc1ccccc1/C=C/c1nc2ccccc2c(=O)[nH]1	range A
N/C(Cc1ccc(Cl)cc1)=N\OC(=O)c1ccc2ccccc2c1	range C
Cn1cnc(Sc2ncnc3nc[nH]c23)c1[N+](=O)[O-]	range B

Lab note: next molecule to report on.
[Q] Class (by measured activity) for CCc1ccc(C(=O)Nc2nc3ccccc3[nH]2)cc1
[A] range C
